- System: lymphoma cell line WSU-DLCL2
- test_details: Standard 6-day growth-death assay, WSU-DLCL2
- Type: cell-based
- measurement_setup: Homo sapiens, WSUDLCL2, 144 h, single agent or fixed 1:1 combination, average of n=2, read-out: gIC50
readout_type: IC50 (µM)
Answers are plain numbers, in µM.

molecule	target_or_test_system	units	measured_result
O=C(NC[C@H](O)CN1CCc2ccccc2C1)c1ccnc(NC2CCC2)c1	lymphoma cell line WSU-DLCL2	µM	1.17

Proceed to the following item.
Challenge: Query: IC50; subject: CC1(C)CCC(CN2CCN(c3ccc(C(=O)NS(=O)(=O)c4ccc(NCC5CCOCC5)c([N+](=O)[O-])c4)c(Oc4cnc5[nH]ccc5c4)c3)CC2)=C(c2ccc(Cl)cc2)C1 [ABT-199, venetoclax, reference compound]
Response given: 6.92
